Numbers sourced from paper PMC9551036.

TARGET ENTITY: SMARCA2 (Homo sapiens, UniProt P51531)
Sequence (P51531 whole entry): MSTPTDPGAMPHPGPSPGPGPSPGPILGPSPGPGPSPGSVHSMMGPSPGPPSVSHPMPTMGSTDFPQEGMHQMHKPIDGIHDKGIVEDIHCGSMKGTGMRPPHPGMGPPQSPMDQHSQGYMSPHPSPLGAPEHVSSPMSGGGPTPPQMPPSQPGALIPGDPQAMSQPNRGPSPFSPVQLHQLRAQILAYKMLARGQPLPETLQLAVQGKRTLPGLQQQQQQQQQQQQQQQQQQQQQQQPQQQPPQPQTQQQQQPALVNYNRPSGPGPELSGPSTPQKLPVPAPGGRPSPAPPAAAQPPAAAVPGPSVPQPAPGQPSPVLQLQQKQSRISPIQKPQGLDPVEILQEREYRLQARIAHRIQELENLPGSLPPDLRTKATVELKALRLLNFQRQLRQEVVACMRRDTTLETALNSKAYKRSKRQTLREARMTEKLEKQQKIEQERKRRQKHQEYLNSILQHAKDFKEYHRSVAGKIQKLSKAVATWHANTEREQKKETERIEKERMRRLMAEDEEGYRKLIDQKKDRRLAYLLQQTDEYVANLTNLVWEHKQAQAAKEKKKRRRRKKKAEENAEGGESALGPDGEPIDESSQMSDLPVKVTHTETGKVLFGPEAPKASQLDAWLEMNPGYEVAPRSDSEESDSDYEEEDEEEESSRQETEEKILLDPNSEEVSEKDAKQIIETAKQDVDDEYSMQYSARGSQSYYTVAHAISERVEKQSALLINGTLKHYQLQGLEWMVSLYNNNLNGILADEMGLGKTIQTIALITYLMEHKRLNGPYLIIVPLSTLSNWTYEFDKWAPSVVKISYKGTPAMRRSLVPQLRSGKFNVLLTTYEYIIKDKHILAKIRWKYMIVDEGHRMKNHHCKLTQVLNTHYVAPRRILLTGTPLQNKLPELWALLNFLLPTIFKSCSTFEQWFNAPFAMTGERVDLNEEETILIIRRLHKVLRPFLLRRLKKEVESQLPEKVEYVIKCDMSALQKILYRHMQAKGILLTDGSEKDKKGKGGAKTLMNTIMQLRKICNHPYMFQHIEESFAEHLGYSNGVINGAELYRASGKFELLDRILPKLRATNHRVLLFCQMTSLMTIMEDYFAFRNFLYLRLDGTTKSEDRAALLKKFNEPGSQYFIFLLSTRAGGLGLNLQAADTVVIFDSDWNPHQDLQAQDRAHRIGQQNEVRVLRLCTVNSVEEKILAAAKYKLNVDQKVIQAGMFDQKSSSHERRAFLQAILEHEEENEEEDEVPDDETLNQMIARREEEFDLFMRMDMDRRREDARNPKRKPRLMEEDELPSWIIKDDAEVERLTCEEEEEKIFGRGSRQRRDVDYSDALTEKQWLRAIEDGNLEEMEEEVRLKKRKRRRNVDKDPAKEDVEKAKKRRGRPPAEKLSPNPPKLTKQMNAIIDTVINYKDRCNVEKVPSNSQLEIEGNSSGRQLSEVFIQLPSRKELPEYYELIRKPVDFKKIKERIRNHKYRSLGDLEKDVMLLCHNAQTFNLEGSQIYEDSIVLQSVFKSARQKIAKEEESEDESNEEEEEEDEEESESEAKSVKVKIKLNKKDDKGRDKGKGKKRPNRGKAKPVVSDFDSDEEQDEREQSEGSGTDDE
TEST DESCRIPTION: SMARCA2 capillary electrophoresis protein assay in RKO cells
Assay type: cell-based
Parameters: endogenous in cells; host or cells: RKO, NCI-H1568, A549, HCT116, LU99, HCC-364, HCT-15, HCC4006, SK-N-AS
ASSAY CONTEXT: RKO (4 h); mean ± SD
ASSAY READOUT: DC50

molecule=O=c1nc2n(C3CCCC3)c3ccccc3n2c2cccc(Br)c12 test_result="> 25000 nM"
molecule=Cc1ncsc1-c1ccc([C@H](CCCCN2CCC(c3ccc4c(c3)n(C3CCCC3)c3nc(=O)c5c(Br)cccc5n43)CC2)NC(=O)[C@@H]2C[C@@H](O)CN2C(=O)[C@@H](NC(=O)C2(F)CC2)C(C)(C)C)cc1 test_result="3 nM"
molecule=CN1CCC(c2ccc3c(c2)n(C2CCCC2)c2nc(=O)c4c(Br)cccc4n32)CC1 test_result="> 25000 nM"
molecule=Cc1ncsc1-c1ccc([C@H](CC[C@H](C)CCN2CCC(c3ccc4c(c3)n(C3CCCC3)c3nc(=O)c5c(Br)cccc5n43)CC2)NC(=O)[C@@H]2C[C@H](O)CN2C(=O)[C@@H](NC(=O)C2(F)CC2)C(C)(C)C)cc1 test_result="> 25000 nM"
molecule=Cc1ncsc1-c1ccc(CNC(=O)[C@@H]2C[C@@H](O)CN2C(=O)[C@@H](NC(=O)C2(F)CC2)C(C)(C)C)c(OCCOCCOCCOCCN2CCC(c3ccc4c(c3)n(C3CCCC3)c3nc(=O)c5c(Br)cccc5n43)CC2)c1 test_result="175 nM"
molecule=Nc1cccc2c1c(=O)nc1n(C3CCCC3)c3ccccc3n21 test_result="> 25000 nM"
molecule=CN1CCN(c2nc(=O)c3ccccc3o2)CC1 test_result="> 25000 nM"
molecule="Cc1ncsc1-c1ccc([C@H](COC(C)CN2CCC(c3ccc4c(c3)n(C3CCCC3)c3nc(=O)c5c(Br)cccc5n43)CC2)NC(=O)[C@@H]2C[C@@H](O)CN2C(=O)[C@@H](NC(=O)C2(N(C)C)CC2)C(C)(C)C)cc1 (stereo partly shown)" test_result="6 nM"
molecule=Cc1ncsc1-c1ccc(CNC(=O)[C@@H]2C[C@@H](O)CN2C(=O)[C@@H](NC(=O)C2(F)CC2)C(C)(C)C)c(OCCCCN2CCC(c3ccc4c(c3)n(C3CCCC3)c3nc(=O)c5c(Br)cccc5n43)CC2)c1 test_result="> 25000 nM"
molecule=CN1CCN(c2nc(=O)c3c(F)cccc3o2)CC1 test_result="> 25000 nM"
molecule=CN1CCN(c2nc(=O)c3c(I)cccc3o2)CC1 test_result="> 25000 nM"
molecule=Cc1ncsc1-c1ccc(CNC(=O)[C@@H]2C[C@@H](O)CN2C(=O)[C@@H](NC(=O)C2(F)CC2)C(C)(C)C)c(OCCN2CCC(c3ccc4c(c3)n(C3CCCC3)c3nc(=O)c5c(Br)cccc5n43)CC2)c1 test_result="> 25000 nM"
molecule=Cc1ncsc1-c1ccc([C@H](CCC(C)(C)CCN2CCC(c3ccc4c(c3)n(C3CCCC3)c3nc(=O)c5c(Br)cccc5n43)CC2)NC(=O)[C@@H]2C[C@@H](O)CN2C(=O)[C@@H](NC(=O)C2(F)CC2)C(C)(C)C)cc1 test_result="8 nM"
molecule=Cc1ncsc1-c1ccc(CNC(=O)[C@@H]2C[C@@H](O)CN2C(=O)[C@@H](NC(=O)C2(F)CC2)C(C)(C)C)c(OCCOCCOCCN2CCC(c3ccc4c(c3)n(C3CCCC3)c3nc(=O)c5c(Br)cccc5n43)CC2)c1 test_result="> 25000 nM"
molecule=Cc1ncsc1-c1ccc([C@H](COCCCN2CCC(c3ccc4c(c3)n(C3CCCC3)c3nc(=O)c5c(Br)cccc5n43)CC2)NC(=O)[C@@H]2C[C@@H](O)CN2C(=O)[C@@H](NC(=O)C2(F)CC2)C(C)(C)C)cc1 test_result="5 nM"
molecule=Cc1ncsc1-c1ccc([C@H](CCCCCN2CCC(c3ccc4c(c3)n(C3CCCC3)c3nc(=O)c5c(Br)cccc5n43)CC2)NC(=O)[C@@H]2C[C@@H](O)CN2C(=O)[C@@H](NC(=O)C2(F)CC2)C(C)(C)C)cc1 test_result="2 nM"
molecule=CN1CCN(c2nc(=O)c3c(Cl)cccc3o2)CC1 test_result="> 25000 nM"
molecule="Cc1ncsc1-c1ccc([C@H](COC(C)CN2CCC(c3ccc4c(c3)n(C3CCCC3)c3nc(=O)c5c(Br)cccc5n43)CC2)NC(=O)[C@@H]2C[C@@H](O)CN2C(=O)[C@@H](NC(=O)C2(F)CC2)C(C)(C)C)cc1 (stereo partly shown)" test_result="12 nM"
molecule=CN1CCN(c2nc(=O)c3c(Br)cccc3o2)CC1 test_result="> 25000 nM"
molecule=Cc1ncsc1-c1ccc([C@H](CC[C@@H](C)CCN2CCC(c3ccc4c(c3)n(C3CCCC3)c3nc(=O)c5c(Br)cccc5n43)CC2)NC(=O)[C@@H]2C[C@@H](O)CN2C(=O)[C@@H](NC(=O)C2(F)CC2)C(C)(C)C)cc1 test_result="2 nM"
molecule="Cc1ncsc1-c1ccc(C(CCC(C)CCN2CCC(c3ccc4c(c3)n(C3CCCC3)c3nc(=O)c5c(Br)cccc5n43)CC2)NC(=O)C2CC(O)CN2C(=O)C(NC(=O)C2(F)CC2)C(C)(C)C)cc1 (stereo not shown)" test_result="4 nM"
molecule=Cc1ncsc1-c1ccc([C@H](COC(C)(C)CN2CCC(c3ccc4c(c3)n(C3CCCC3)c3nc(=O)c5c(Br)cccc5n43)CC2)NC(=O)[C@@H]2C[C@@H](O)CN2C(=O)[C@@H](NC(=O)C2(F)CC2)C(C)(C)C)cc1 test_result="17 nM"

----------
TEST DESCRIPTION: Cell viability assay (CellTiter Glo) in a panel of cell lines;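 note: percent of DMSO-treated control cells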
Format: cell-based, human
ASSAY CONTEXT: human, NCI-H23 cells, NCI-H23; log10 conc -6.50446 mol/l
ASSAY READOUT: viability at 0.313 µM (%)

compound="Cc1ncsc1-c1ccc(C(CCC(C)CCN2CCC(c3ccc4c(c3)n(C3CCCC3)c3nc(=O)c5c(Br)cccc5n43)CC2)NC(=O)C2CC(O)CN2C(=O)C(NC(=O)C2(F)CC2)C(C)(C)C)cc1 (stereo not shown)" test_result=76.1

----------
TEST DESCRIPTION: Pharmacokinetic analyses in mouse
Assay type: in vivo
ASSAY CONTEXT: mouse, plasma, po, 30 mg/kg, 30 mg/kg p.o. vs 5 mg/kg i.v.; individual animals; read-out: F
Description: Compound concentrations in plasma aliquots were measured by quantitative HPLC-MS/MS using an internal standard. Calibration and quality control samples were prepared using blank plasma from untreated animals. Samples were precipitated with acetonitrile and injected into a HPLC system (Agilent 1200). […] Chromatograms were analyzed with Analyst (SCIEX) and pharmacokinetic parameters were calculated by non-compartmental analysis using BI-proprietary software.
ASSAY READOUT: bioavailability (%)

compound="Cc1ncsc1-c1ccc(C(CCC(C)CCN2CCC(c3ccc4c(c3)n(C3CCCC3)c3nc(=O)c5c(Br)cccc5n43)CC2)NC(=O)C2CC(O)CN2C(=O)C(NC(=O)C2(F)CC2)C(C)(C)C)cc1 (stereo not shown) [ACBI2]" assay_readout=bioavailability test_result=21.5

----------
TARGET ENTITY: VCB: PROTAC: SMARCA4^BD ternary complex (Homo sapiens, UniProt P40337+P51532)
Sequence (P51532 1448-1569): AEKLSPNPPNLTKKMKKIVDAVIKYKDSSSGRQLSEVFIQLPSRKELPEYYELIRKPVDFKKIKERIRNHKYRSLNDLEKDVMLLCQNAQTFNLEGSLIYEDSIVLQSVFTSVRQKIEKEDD
Sequence (P40337 54-213): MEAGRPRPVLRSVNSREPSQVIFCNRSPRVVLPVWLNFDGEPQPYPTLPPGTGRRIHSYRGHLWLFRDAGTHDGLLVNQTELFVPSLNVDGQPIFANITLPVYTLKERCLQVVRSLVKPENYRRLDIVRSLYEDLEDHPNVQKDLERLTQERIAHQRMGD
Sequence (Q15369 17-112 partner): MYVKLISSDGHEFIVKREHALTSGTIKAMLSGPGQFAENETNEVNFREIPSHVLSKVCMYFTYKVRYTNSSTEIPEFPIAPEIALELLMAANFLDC
Sequence (Q15370 1-104 partner): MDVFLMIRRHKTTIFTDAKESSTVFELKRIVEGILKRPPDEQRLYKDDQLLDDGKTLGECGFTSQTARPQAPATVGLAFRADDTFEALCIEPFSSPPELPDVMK
TEST DESCRIPTION: TR-FRET ternary complex affinity and cooperativity, SMARCA4
Assay type: binding
Parameters: P51532, residues 1448–1569 with additional N-terminal SM residues; GST (TEV site) (N); His6 (TEV site) (N, cleaved yes); made in house; host or cells: SMARCA4^BD: Escherichia coli BL21(DE3)
ASSAY CONTEXT: TR-FRET competition for SMARCA4BD, + VCB; mean ± SD; read-out: TR-FRET Ternary SMARCA4BD EC50 (PROTAC + VCB)
pEC50: −log10 of the molar value.
pEC50 values for the compounds below.
ASSAY READOUT: pEC50

compound=Cc1ncsc1-c1ccc(CNC(=O)[C@@H]2C[C@H](O)CN2C(=O)[C@@H](NC(=O)C2(F)CC2)C(C)(C)C)c(OCCN2CCC(c3ccc4c(c3)n(C3CCCC3)c3nc(=O)c5c(Br)cccc5n43)CC2)c1 test_result=6.76
compound="Cc1ncsc1-c1ccc([C@H](COC(C)CN2CCC(c3ccc4c(c3)n(C3CCCC3)c3nc(=O)c5c(Br)cccc5n43)CC2)NC(=O)[C@@H]2C[C@@H](O)CN2C(=O)[C@@H](NC(=O)C2(N(C)C)CC2)C(C)(C)C)cc1 (stereo partly shown)" test_result=7.15
compound=Cc1ncsc1-c1ccc(CNC(=O)[C@@H]2C[C@@H](O)CN2C(=O)[C@@H](NC(=O)C2(F)CC2)C(C)(C)C)c(OCCOCCOCCOCCN2CCC(c3ccc4c(c3)n(C3CCCC3)c3nc(=O)c5c(Br)cccc5n43)CC2)c1 test_result=7.05
compound=Cc1ncsc1-c1ccc([C@H](CCCCCN2CCC(c3ccc4c(c3)n(C3CCCC3)c3nc(=O)c5c(Br)cccc5n43)CC2)NC(=O)[C@@H]2C[C@@H](O)CN2C(=O)[C@@H](NC(=O)C2(F)CC2)C(C)(C)C)cc1 test_result=7.17
